As shown below, each of these binders has a reported koff value.
Target: T1, Human BCMA (human, UniProt Q02223 1-54, limits assumed)
T1 construct: Soluble analyte in SPR; construct not described; also called huBCMA; B-cell maturation antigen
T1 sequence (looked up): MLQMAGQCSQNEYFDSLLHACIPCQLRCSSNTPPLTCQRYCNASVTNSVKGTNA
Assay: SPR, IgG immobilised, 37 C

>  <Binder>
L3.PY/L3.KF/H3.AE (antibody, V domains shown, IgG) VH: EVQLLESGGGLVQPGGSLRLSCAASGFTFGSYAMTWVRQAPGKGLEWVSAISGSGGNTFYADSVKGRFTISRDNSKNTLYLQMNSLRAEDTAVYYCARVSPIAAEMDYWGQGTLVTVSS VL: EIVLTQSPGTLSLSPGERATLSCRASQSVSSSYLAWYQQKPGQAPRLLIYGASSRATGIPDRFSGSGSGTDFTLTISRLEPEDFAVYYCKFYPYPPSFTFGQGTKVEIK

>  <koff [s⁻¹]>
0.00155

$$$$
>  <Binder>
L3.PY/L1.FF/H3.AQ (antibody, V domains shown, IgG) VH: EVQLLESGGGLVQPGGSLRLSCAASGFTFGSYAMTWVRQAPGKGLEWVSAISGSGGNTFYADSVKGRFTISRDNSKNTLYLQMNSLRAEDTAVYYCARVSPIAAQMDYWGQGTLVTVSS VL: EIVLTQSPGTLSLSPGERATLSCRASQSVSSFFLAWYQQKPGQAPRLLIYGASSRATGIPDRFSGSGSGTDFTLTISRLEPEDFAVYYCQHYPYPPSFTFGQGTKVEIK

>  <koff [s⁻¹]>
0.00154

$$$$
>  <Binder>
L3.PY/L1.FF/H2.QL (antibody, V domains shown, IgG) VH: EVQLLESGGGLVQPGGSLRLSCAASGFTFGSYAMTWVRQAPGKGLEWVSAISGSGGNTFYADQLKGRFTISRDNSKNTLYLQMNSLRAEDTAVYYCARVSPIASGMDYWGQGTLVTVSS VL: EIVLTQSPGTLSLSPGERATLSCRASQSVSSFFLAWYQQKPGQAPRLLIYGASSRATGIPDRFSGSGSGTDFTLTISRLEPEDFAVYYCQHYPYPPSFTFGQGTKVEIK

>  <koff [s⁻¹]>
0.0014

$$$$
